Entries and their measured Cmax for prodrug (Cmax PD) in plasma follow.
Assay: in vivo
Settings: rat, single oral dose of prodrug, 25 mg-equivalents of gabapentin per kg
Answer with a number only, understood to be in ng/mL.

Worked cases, Cmax for prodrug (Cmax PD) in plasma given:
Given the compound N[C@@H](Cc1cc(F)cc(F)c1)C(=O)NCC1(CC(=O)O)CCCCC1 , write its reported Cmax for prodrug (Cmax PD) in plasma.
2900

Given the compound N#Cc1cccc(C[C@H](N)C(=O)NCC2(CC(=O)O)CCCCC2)c1 , write its reported Cmax for prodrug (Cmax PD) in plasma.
600

Given the compound N[C@@H](Cc1ccc(C(F)(F)F)cc1)C(=O)NCC1(CC(=O)O)CCCCC1 , write its reported Cmax for prodrug (Cmax PD) in plasma.
30000

Given the compound NC(Cc1ccc(F)cc1F)C(=O)NCC1(CC(=O)O)CCCCC1 (stereo not shown) , write its reported Cmax for prodrug (Cmax PD) in plasma.
278000

Given the compound N#Cc1ccc(C[C@H](N)C(=O)NCC2(CC(=O)O)CCCCC2)cc1 , write its reported Cmax for prodrug (Cmax PD) in plasma.
22400

Given the compound N[C@@H](Cc1cccc2ccccc12)C(=O)NCC1(CC(=O)O)CCCCC1 , write its reported Cmax for prodrug (Cmax PD) in plasma.
500

Now, please, on to the next compound.
Given the compound N[C@@H](Cc1ccc(Br)cc1)C(=O)NCC1(CC(=O)O)CCCCC1 , write its reported Cmax for prodrug (Cmax PD) in plasma.
103000

###

Assay: in vivo
Details: male, monkey, plasma, po, 10 mg/kg
READOUT_LABEL: bioavailability (%)
Answer with a number only, understood to be in %.

Given the molecule NCC1(CC(=O)O)CCCCC1 [gabapentin] , write its reported bioavailability.
53.9

###

Test: in vivo
Settings: male, Sprague-Dawley, rat, plasma, po, 25 mg/kg
READOUT_LABEL: half-life (h)
Answer with a number only, understood to be in h.

Given the compound NCC1(CC(=O)O)CCCCC1 [gabapentin] , write its reported half-life.
2.4

###

Assay: in vivo
Conditions: male, monkey, plasma, po, 10 mg/kg
READOUT_LABEL: Cmax (ng/mL)
Answer with a number only, understood to be in ng/mL.

Given the compound NCC1(CC(=O)O)CCCCC1 , write its reported Cmax.
3700
